Test: in vitro
Details: rat, gh3-tre-luc cells, AC50 (uM) modified / 1000, Tox21_110001=Tox21_110431; viability, 1 nM T3 present, 24 h
Where a name gives a salt, the structure may show the parent alone.
Experimental readout: CC50 at 24 h

Task: Please give the documented CC50 at 24 h of C[C@H](N)[C@H](O)c1ccccc1 [Phenylpropanolamine hydrochloride]
Output: > 20 µM

====

Tested on: GH3-TRE-Luc cell line
Conditions: read-out: AC50 (uM) modified / 1000; Tox21_110001=Tox21_200600; viability, 1 nM T3 present, 24 h
Experimental readout: CC50 (µM)
Lab book: enter the figure in µM, no units written.

Task: Please give the documented CC50 of CCCCCCCCCCCCCCCCn1cc[n+](C)c1 [1-Hexadecyl-3-methylimidazolium chloride]
Output: 21.4

====

Tested on: GH3-TRE-Luc cell line
Details: read-out: AC50 (uM) modified / 1000; Tox21_110001=Tox21_110388; viability, 1 nM T3 present, 24 h
Experimental readout: CC50 (µM)
Lab book: enter the figure in µM, no units written.

Task: Please give the documented CC50 of "CCOc1ccc2c(c1)C(C)=CC(C)(C)N2"
Output: 39.8

====

Assay: in vitro
Conditions: rat, gh3-tre-luc cells, AC50 (uM) modified / 1000, Tox21_110001=Tox21_111239; viability, 1 nM T3 present, 24 h
Counter-ions that a name gives are not always drawn.
Experimental readout: CC50 at 24 h

Task: Please give the documented CC50 at 24 h of CC(C)NC(C)Cc1ccc(I)cc1 (stereo not shown) [Iofetamine hydrochloride]
Output: > 50 µM

====

Assay: in vitro
Details: rat, gh3-tre-luc cells, AC50 (uM) modified / 1000
Counter-ions that a name gives are not always drawn.
Experimental readout: CC50 at 24 h

Compound	CC50 at 24 h
CC(C)c1cc(C(C)C)cc(C(C)C)c1 [1,3,5-Triisopropylbenzene]	> 90 µM
CC(C)c1cccc(C(C)C)c1NC(=O)NS(=O)(=O)c1cc(C(C)(C)O)co1 [CP-465394]	> 90 µM
CN1CC(=O)NC1=N [Creatinine]	> 50 µM

Task: Please give the documented CC50 at 24 h of OCCSc1ccccc1 [2-Phenylmercaptoethanol]
Output: > 90 µM

Task: Please give the documented CC50 at 24 h of O=C1CCc2cc(OCCCCc3nnnn3C3CCCCC3)ccc2N1 [Cilostazol]
Output: > 50 µM

Task: Please give the documented CC50 at 24 h of Cc1cc(S(=O)(=O)O)ccc1N=Nc1c(O)ccc2ccccc12 [C.I. Acid Orange 8, monosodium salt]
Output: 19.3 µM

====

Experiment: in vitro
Conditions: rat, gh3-tre-luc cells, AC50 (uM) modified / 1000
Where a name gives a salt, the structure may show the parent alone.
Experimental readout: CC50 at 24 h

Molecule	CC50 at 24 h
C[C@H]1CC[C@]2(NC1)O[C@H]1C[C@H]3[C@@H]4CC[C@H]5C[C@@H](O)CC[C@]5(C)[C@H]4CC[C@]3(C)[C@H]1[C@@H]2C [Tomatidine hydrochloride]	47 µM

Task: Please give the documented CC50 at 24 h of Cc1cn([C@H]2C[C@H](O)[C@@H](CO)O2)c(=O)[nH]c1=O [Thymidine]
Output: > 50 µM

Task: Please give the documented CC50 at 24 h of COc1ccc(O)cc1 [4-Methoxyphenol]
Output: > 90 µM

Task: Please give the documented CC50 at 24 h of COP(=S)(OC)Oc1ccc(SC)c(C)c1 [Fenthion]
Output: > 90 µM

====

Assay: in vitro
Conditions: rat, gh3-tre-luc cells, AC50 (uM) modified / 1000, Tox21_110001=Tox21_200069; viability, 1 nM T3 present, 24 h
Experimental readout: CC50 at 24 h (µM)
Lab book: enter the figure in µM, no units written.

Task: Please give the documented CC50 at 24 h of CC(=O)NNc1ccccc1 [1-Acetyl-2-phenylhydrazine]
Output: 7.15

====

Test system: GH3-TRE-Luc cell line
Conditions: read-out: AC50 (uM) modified / 1000; Tox21_110001=Tox21_303548; viability, 1 nM T3 present, 24 h
Experimental readout: CC50 (µM)
Lab book: enter the figure in µM, no units written.

Task: Please give the documented CC50 of "CCn1c2ccccc2c2cc(N)ccc21"
Output: 93.2

====

Assay: in vitro
Settings: rat, gh3-tre-luc cells, AC50 (uM) modified / 1000, Tox21_110001=Tox21_201613; viability, 1 nM T3 present, 24 h
Experimental readout: CC50 at 24 h

Task: Please give the documented CC50 at 24 h of O=[N+]([O-])c1ccc(Cl)c(Cl)c1 [3,4-Dichloronitrobenzene]
Output: > 90 µM

====

Overview of recorded CC50 at 24 h for various molecules
Assay: in vitro
Conditions: rat, gh3-tre-luc cells, AC50 (uM) modified / 1000

Molecule	CC50 at 24 h
CCCCCCCCC [Nonane]	> 90 µM

Task: Please give the documented CC50 at 24 h of Nc1cc(N)cc(C(=O)O)c1 [3,5-Diaminobenzoic acid]
Output: > 90 µM

Task: Please give the documented CC50 at 24 h of CCOC(=O)C(C)C(C)=O (centres unmarked) [Ethyl-2-methyl acetoacetate]
Output: > 90 µM

Task: Please give the documented CC50 at 24 h of Cc1cccc(N)c1C [2,3-Dimethylaniline]
Output: > 90 µM

Task: Please give the documented CC50 at 24 h of Cc1ccc(S(=O)(=O)NC(=O)NC2CCCCCCC2)cc1 [Glyoctamide]
Output: > 50 µM

Task: Please give the documented CC50 at 24 h of CC(=O)OCCOCCOCCOC(C)=O [Triethylene glycol diacetate]
Output: > 90 µM

Task: Please give the documented CC50 at 24 h of Nc1cccc2c1CN(C1CCC(=O)NC1=O)C2=O (centres unmarked) [Lenalidomide]
Output: > 50 µM

Task: Please give the documented CC50 at 24 h of CC(C)(Oc1ccc(C2CCCc3ccccc32)cc1)C(=O)O (centres unmarked) [Nafenopin]
Output: > 50 µM

====

Test system: GH3-TRE-Luc cell line
Settings: read-out: AC50 (uM) modified / 1000; Tox21_110001=Tox21_300153; viability, 1 nM T3 present, 24 h
Experimental readout: CC50

Task: Please give the documented CC50 of "Oc1ccccc1O"
Output: 32.6 µM

====

Test: in vitro
Conditions: rat, gh3-tre-luc cells, AC50 (uM) modified / 1000, Tox21_110001=Tox21_300534; viability, 1 nM T3 present, 24 h
Experimental readout: CC50 at 24 h (µM)
Lab book: enter the figure in µM, no units written.

Task: Please give the documented CC50 at 24 h of ClC1=C(Cl)C2(Cl)C3C(Cl)C=CC3C1(Cl)C2(Cl)Cl (stereo not shown)
Output: 42.6

====

Test system: GH3-TRE-Luc cell line
Details: read-out: AC50 (uM) modified / 1000; Tox21_110001=Tox21_111656; viability, 1 nM T3 present, 24 h
Experimental readout: CC50
Could you kindly put the unit after your number?

Task: Please give the documented CC50 of CN(C)C(=S)SC(=S)N(C)C [Tetramethylthiuram monosulfide]
Output: 2.19 µM

====

Overview of recorded Emax for various compounds
Biological target: human TRβ ligand-binding domain (Homo sapiens, UniProt P10828)
Sequence (P10828 217-461 limits assumed): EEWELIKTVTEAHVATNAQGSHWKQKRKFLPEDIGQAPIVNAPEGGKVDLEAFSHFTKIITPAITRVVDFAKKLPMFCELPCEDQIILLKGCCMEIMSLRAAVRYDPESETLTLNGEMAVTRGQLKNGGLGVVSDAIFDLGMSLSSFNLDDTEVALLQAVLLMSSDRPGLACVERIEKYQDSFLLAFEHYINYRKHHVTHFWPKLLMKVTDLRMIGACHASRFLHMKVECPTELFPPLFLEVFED
Assay: TRb-bla agonist mammalian one-hybrid beta-lactamase assay (TOX21_TRB_BLA_Agonist_Followup_ratio, aeid 2236)
Assay type: cell-based
Parameters: host or cells: GeneBLAzer UAS-bla HEK 293T
Conditions: read-out: EMax (% of Control) trb-bla-agonist-followup-1
Lab book: enter the figure in %, no units written.

Task: Please give the documented Emax of "CNC(=O)ON=C(CSC)C(C)(C)C"
Output: 31.7

====

Assay: in vitro
Settings: rat, gh3-tre-luc cells, AC50 (uM) modified / 1000, Tox21_110001=Tox21_112881; viability, 1 nM T3 present, 24 h
Where a name gives a salt, the structure may show the parent alone.
Experimental readout: CC50 at 24 h (µM)
Lab book: enter the figure in µM, no units written.

Task: Please give the documented CC50 at 24 h of NC1(c2ccccc2)CCCCC1 [1-Phenylcyclohexylamine hydrochloride]
Output: 40.7
